Several reports have described IC50 for HPK1 (Homo sapiens (Human), UniProt Q92918); a selection of those results is presented here.

Sample answers from the record:
COMPOUND	IC50
CCc1c[nH]c2ncc(-c3cccc(N4CCN(C(=O)CN5CCOCC5)CC4=O)c3)c(Cl)c12	≤ 0.01 µM
CCc1c[nH]c2ncc(-c3cccc(N4CCN(CC5CN(c6ccc7c(c6)C(=O)N(C6CCC(=O)NC6=O)C7=O)C5)CC4=O)c3)c(Cl)c12 (stereo not shown)	0.01 to 0.1 µM
CNC1CCN(c2ccc(Nc3ncc(-c4ccncc4)c4c3C(=O)NC4)cc2)CC1	> 0.1 µM

In: Under HPK1 (Homo sapiens (Human), UniProt Q92918): IC50 value of CC(OC1CCN(c2cc3c(cc2F)C(=O)N(C2CCC(=O)NC2=O)C3=O)CC1)C(=O)N1CCN(c2cccc(-c3cnc4[nH]cc(C5CC5)c4c3Cl)c2)C(=O)C1 (stereo not shown) ?
Out: 0.01 to 0.1 µM
